Measured values drawn from the supplement of paper PMC8728848 for this set.

- Tested System: Neu5Ac(a2-8)Neu5Ac
- Experiment Description: glycan array binding signal (z-score within array); higher = stronger binding
- Condition Set: glycan notation: IUPAC condensed, linker removed
The full list was thinned out, with the strongest signals kept by preference.
Some binders, each annotated with its measured glycan array binding signal (z-score).
Measured Attribute: glycan array binding signal (z-score)

{"columns": ["Binder", "Measured Result"],
 "data": [
  ["RS-IIL (Ralstonia solanacearum) (protein) AQQGVFTLPANTSFGVTAFANAANTQTIQVLVDNVVKATFTGSGTSDKLLGSQVLNSGSGAIKIQVSVNGKPSDLVSNQTILANKLNFAMVGSEDGTDNDYNDGIAVLNWPLG", -0.388],
  ["PNGase F (Flavobacterium meningosepticum) (protein) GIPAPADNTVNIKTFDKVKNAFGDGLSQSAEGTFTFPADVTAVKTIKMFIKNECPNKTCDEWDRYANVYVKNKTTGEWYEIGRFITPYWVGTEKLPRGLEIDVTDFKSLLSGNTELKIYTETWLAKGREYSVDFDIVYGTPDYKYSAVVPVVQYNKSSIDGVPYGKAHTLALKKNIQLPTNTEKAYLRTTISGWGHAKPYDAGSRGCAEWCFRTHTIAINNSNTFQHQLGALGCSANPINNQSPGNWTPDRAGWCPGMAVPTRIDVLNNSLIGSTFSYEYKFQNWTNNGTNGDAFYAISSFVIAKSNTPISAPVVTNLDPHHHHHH", -0.021],
  ["Epf (Streptococcus pyogenes) (protein) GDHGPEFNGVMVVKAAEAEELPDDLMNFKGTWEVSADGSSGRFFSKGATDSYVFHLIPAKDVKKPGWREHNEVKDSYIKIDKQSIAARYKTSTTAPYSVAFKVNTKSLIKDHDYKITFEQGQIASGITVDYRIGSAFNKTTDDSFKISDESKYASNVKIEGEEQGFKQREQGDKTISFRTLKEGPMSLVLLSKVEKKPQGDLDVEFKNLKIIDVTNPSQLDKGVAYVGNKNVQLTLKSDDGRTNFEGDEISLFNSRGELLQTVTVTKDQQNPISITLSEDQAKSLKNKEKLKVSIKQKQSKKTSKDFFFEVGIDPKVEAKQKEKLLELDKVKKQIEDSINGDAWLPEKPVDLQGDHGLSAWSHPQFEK", 0.246],
  ["Pwp2 (Candida glabrata) (protein) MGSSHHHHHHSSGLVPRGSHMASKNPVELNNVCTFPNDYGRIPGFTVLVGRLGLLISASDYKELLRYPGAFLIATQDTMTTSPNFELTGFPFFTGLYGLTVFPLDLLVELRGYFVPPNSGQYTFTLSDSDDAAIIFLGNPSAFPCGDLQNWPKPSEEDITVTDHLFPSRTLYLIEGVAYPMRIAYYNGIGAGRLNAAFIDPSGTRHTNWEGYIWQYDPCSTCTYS", -0.04],
  ["Pwp5 ND (Candida glabrata) (protein) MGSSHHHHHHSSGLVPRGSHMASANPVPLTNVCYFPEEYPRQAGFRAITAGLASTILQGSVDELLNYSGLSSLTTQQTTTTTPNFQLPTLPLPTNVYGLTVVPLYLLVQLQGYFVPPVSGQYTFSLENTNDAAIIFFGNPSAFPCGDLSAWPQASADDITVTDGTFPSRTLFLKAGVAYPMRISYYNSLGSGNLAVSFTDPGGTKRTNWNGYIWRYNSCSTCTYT", 0.246],
  ["SSA (Sclerotinia sclerotiorum), A7XUK7 (protein) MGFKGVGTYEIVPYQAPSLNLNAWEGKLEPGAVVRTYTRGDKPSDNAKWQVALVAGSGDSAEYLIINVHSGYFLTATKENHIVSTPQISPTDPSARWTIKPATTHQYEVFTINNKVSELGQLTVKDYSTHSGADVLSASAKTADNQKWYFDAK", -0.215],
  ["AcfC (Vibrio cholerae), Q57410 (protein) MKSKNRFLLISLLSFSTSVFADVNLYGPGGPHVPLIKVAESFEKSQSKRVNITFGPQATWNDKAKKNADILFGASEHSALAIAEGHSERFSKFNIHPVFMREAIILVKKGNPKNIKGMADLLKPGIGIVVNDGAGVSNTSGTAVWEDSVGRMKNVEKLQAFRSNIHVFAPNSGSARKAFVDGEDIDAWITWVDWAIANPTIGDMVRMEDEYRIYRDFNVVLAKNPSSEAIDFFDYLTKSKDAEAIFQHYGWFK", 0.214]
]}
